Tested on: person two with Parkinson's disease and peak-dose dyskinesia
Test: Case Report 3: peak-dose dyskinesia of treated Parkinson's disease
Format: in vivo, human
Details: Case 3; added to antiparkinson regime; memantine 10 mg three times a day; acamprosate 666 mg three times, then 333 mg four times a day; baclofen 30 and 60 mg daily; magnesium 300 mg three times a day
readout kind: effect on peak-dose dyskinesia

[
  {
    "compound": "CC(C[N+](C)(C)C)OC(N)=O (stereo not drawn) [bethanecol]",
    "experimental value": "did not appear to affect"
  },
  {
    "compound": "CN[C@H]1CC[C@@H](c2ccc(Cl)c(Cl)c2)c2ccccc21 [sertraline]",
    "experimental value": "did not appear to affect"
  },
  {
    "compound": "NC(=O)N1c2ccccc2C=Cc2ccccc21 [carbamazepine]",
    "experimental value": "did not appear to affect"
  }
]
